Values compiled from ChEMBL document CHEMBL1157539.

tested on: HepG2; assay: GSK_TCMDC: Percent inhibition of human HepG2 cell line. Test compounds present at 10uM.; format: functional
One threshold, 20%, splits the recorded Inhibition values: lower ones are Met, equal or higher ones are Not met.

Determine whether this compound shows Inhibition lower than 20% (ties excluded): Clc1ncnc2ncn(Cc3cccc(Br)c3)c12
Met

Answer whether the compound COc1ccc(-c2cccc(NC(=O)c3cccc(C#N)c3)c2)cc1CN1CCNCC1.O=C(O)C(F)(F)F has Inhibition strictly less than 20%
Not met

In plain terms, does CCN(CCN(C)C)Cc1ccc(-c2ccc(NS(=O)(=O)c3cccc4cccnc34)cc2)cc1.O=C(O)C(F)(F)F come in under 20% for Inhibition?
Met

In the record for CCC(=O)NC(c1ccco1)c1cc(Cl)c2cccnc2c1O (stereo unspecified) , is Inhibition less than 20%?
Not met

Inhibition strictly < 20% for this compound? COc1ccc2c(NN=Cc3cccc(F)c3)ccnc2c1
Not met

Inhibition under 20%? Item: OC(CNCc1ccccc1Oc1ccccc1)c1cc(Br)cs1 (stereo unspecified)
Met
